Biological target: ABHD6 (Mus musculus (Mouse), UniProt Q8R2Y0)
Sequence (Q8R2Y0 whole entry): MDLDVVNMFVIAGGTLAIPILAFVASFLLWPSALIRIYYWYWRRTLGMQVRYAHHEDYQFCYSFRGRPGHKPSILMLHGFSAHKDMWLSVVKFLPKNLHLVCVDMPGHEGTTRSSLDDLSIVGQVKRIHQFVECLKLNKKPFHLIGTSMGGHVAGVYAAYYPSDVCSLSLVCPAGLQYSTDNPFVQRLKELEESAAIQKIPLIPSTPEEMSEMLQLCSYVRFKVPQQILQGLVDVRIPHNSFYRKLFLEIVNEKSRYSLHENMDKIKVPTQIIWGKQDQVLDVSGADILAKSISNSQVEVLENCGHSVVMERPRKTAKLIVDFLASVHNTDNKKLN
Test: Competitive ABPP, % inhibition at 1 uM, ABHD6
Format: biochemical
Reported inhibition at 1 µM is given for each of the following molecules.
Reported endpoint: inhibition at 1 µM

INSERT INTO assay_data (molecule, result) VALUES
  ('CC(C)c1cc(N2CCOCC2)ccc1CN1CCN(C(=O)OC(C(F)(F)F)C(F)(F)F)CC1 [Example 9bc]', '< 25%'),
  ('C[C@@H]1CN(Cc2ccc(N3CCOCC3)cc2C(F)(F)F)CCN1C(=O)OC(C(F)(F)F)C(F)(F)F [Example 9l]', '< 25%'),
  ('O=C(OC(C(F)(F)F)C(F)(F)F)N1CCN(Cc2ccc(C(=O)N3CCCC3)cc2Cl)CC1 [Example 9bd]', '25 to 75%'),
  ('Cc1cc(-c2ccc(CN3CCN(C(=O)OC(C(F)(F)F)C(F)(F)F)CC3)c(C)c2)cc(C)n1 [Example 11m]', '25 to 75%'),
  ('Cc1cccc(-c2ccc(CN3CCN(C(=O)OC(C(F)(F)F)C(F)(F)F)CC3)c(Oc3ccccc3)c2)c1 [Example 11r]', '< 25%'),
  ('Cc1ncccc1-c1ccc(CN2CCN(C(=O)OC(C(F)(F)F)C(F)(F)F)CC2)c(F)c1 [Example 11t]', '25 to 75%'),
  ('O=C(OC(C(F)(F)F)C(F)(F)F)N1CCN(Cc2ccc(-c3cccc(F)c3)cc2F)CC1 [Example 11o]', '25 to 75%'),
  ('Cc1cccc(-c2ccc(CN3CCN(C(=O)OC(C(F)(F)F)C(F)(F)F)CC3)c(F)c2)n1 [Example 11ac]', '25 to 75%'),
  ('Cc1cccc(-c2ccc(CN3CCN(C(=O)OC(C(F)(F)F)C(F)(F)F)CC3)c(C)n2)c1 [Example 11d]', '25 to 75%'),
  ('Cc1cc(-c2cccnc2)ccc1CN1CCN(C(=O)OC(C(F)(F)F)C(F)(F)F)CC1 [Example 11l]', '> 75%'),
  ('Cc1nc(CN2CCN(C(=O)OC(C(F)(F)F)C(F)(F)F)CC2)ccc1-c1cccc(F)c1 [Example 11w]', '25 to 75%'),
  ('Cc1cccc(-c2ccc(CN3CCN(C(=O)OC(C(F)(F)F)C(F)(F)F)CC3)c(C)c2)c1 [Example 11h]', '< 25%'),
  ('Cc1ccccc1-c1ccc(CN2CCN(C(=O)OC(C(F)(F)F)C(F)(F)F)CC2)nc1C [Example 11u]', '25 to 75%'),
  ('Cc1cc(-c2ccc(CN3CCN(C(=O)OC(C(F)(F)F)C(F)(F)F)CC3)c(C)c2)ccn1 [Example 11i]', '25 to 75%'),
  ('Cc1cccc(-c2ccc(CN3CCN(C(=O)OC(C(F)(F)F)C(F)(F)F)CC3)c(C)c2)n1 [Example 11z]', '25 to 75%'),
  ('CC1CN(C(=O)OC(C(F)(F)F)C(F)(F)F)CCN1Cc1ccc(-c2ccccc2)cc1 (stereo not drawn) [Example 11a]', '25 to 75%'),
  ('C[C@@H]1CN(Cc2ccc(N3CCOCC3)cc2F)CCN1C(=O)OC(C(F)(F)F)C(F)(F)F [Example 9k]', '< 25%'),
  ('Cc1nc(-c2cccc(F)c2)ccc1CN1CCN(C(=O)OC(C(F)(F)F)C(F)(F)F)CC1 [Example 11e]', '25 to 75%'),
  ('Cc1cnccc1-c1ccc(CN2CCN(C(=O)OC(C(F)(F)F)C(F)(F)F)CC2)c(F)c1 [Example 11ab]', '25 to 75%'),
  ('Cc1cc(-c2ccncc2C)ccc1CN1CCN(C(=O)OC(C(F)(F)F)C(F)(F)F)CC1 [Example 11n]', '> 75%'),
  ('O=C(OC(C(F)(F)F)C(F)(F)F)N1CCN(Cc2cccc(Cl)c2C(=O)N2CCOCC2)CC1 [Example 9bf]', '< 25%'),
  ('C[C@H]1CN(Cc2ccc(N3CCOCC3)cc2C(F)(F)F)CCN1C(=O)OC(C(F)(F)F)C(F)(F)F [Example 9j]', '25 to 75%'),
  ('CC(C)c1cc(-c2ccccc2)ccc1CN1CCN(C(=O)OC(C(F)(F)F)C(F)(F)F)CC1 [Example 9at]', '< 25%'),
  ('Cc1ccccc1-c1ccc(CN2CCN(C(=O)OC(C(F)(F)F)C(F)(F)F)CC2)c(C)n1 [Example 11b]', '25 to 75%');

---

Biological target: UniProtKB O35678
Sequence (O35678 whole entry): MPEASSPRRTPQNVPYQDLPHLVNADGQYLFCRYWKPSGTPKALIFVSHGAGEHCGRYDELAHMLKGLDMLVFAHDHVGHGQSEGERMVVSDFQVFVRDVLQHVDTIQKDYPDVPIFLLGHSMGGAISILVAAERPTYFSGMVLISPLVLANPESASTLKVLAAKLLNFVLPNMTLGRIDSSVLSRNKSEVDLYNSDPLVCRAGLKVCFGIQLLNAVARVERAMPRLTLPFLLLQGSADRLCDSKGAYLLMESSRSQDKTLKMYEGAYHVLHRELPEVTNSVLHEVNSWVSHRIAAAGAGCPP
Test: Competitive ABPP, % inhibition at 1 uM, MAGL
Type: biochemical
Reported inhibition at 1 µM is given for each of the following compounds.
Reported endpoint: inhibition at 1 µM

INSERT INTO measurements (compound, reported_endpoint, result) VALUES
  ('Cc1nc(CN2CCN(C(=O)OC(C(F)(F)F)C(F)(F)F)CC2)ccc1-c1cccc(F)c1 [Example 11w]', 'inhibition at 1 µM', '> 75%'),
  ('Cc1ncccc1-c1ccc(CN2CCN(C(=O)OC(C(F)(F)F)C(F)(F)F)CC2)c(F)c1 [Example 11t]', 'inhibition at 1 µM', '> 75%'),
  ('C[C@H]1CN(Cc2ccc(N3CCOCC3)cc2C(F)(F)F)CCN1C(=O)OC(C(F)(F)F)C(F)(F)F', 'inhibition at 1 µM', '25 to 75%'),
  ('O=C(OC(C(F)(F)F)C(F)(F)F)N1CCN(Cc2ccc(C(=O)N3CCCC3)cc2Cl)CC1', 'inhibition at 1 µM', '25 to 75%'),
  ('O=C(OC(C(F)(F)F)C(F)(F)F)N1CCN(Cc2ccc(N3CCOCC3)cc2OC(F)(F)F)CC1', 'inhibition at 1 µM', '> 75%'),
  ('C[C@@H]1CN(Cc2ccc(N3CCOCC3)cc2C(F)(F)F)CCN1C(=O)OC(C(F)(F)F)C(F)(F)F', 'inhibition at 1 µM', '< 25%'),
  ('Cc1cc(-c2cccnc2)ccc1CN1CCN(C(=O)OC(C(F)(F)F)C(F)(F)F)CC1 [Example 11l]', 'inhibition at 1 µM', '> 75%'),
  ('C[C@H]1CN(Cc2ccc(N3CCOCC3)cc2F)CCN1C(=O)OC(C(F)(F)F)C(F)(F)F', 'inhibition at 1 µM', '25 to 75%');

---

Reported IC50 is given for each of the following compounds.
Molecular target: ABHD6 (Mus musculus (Mouse))
Assay: In vitro competitive activity-based protein profiling (FP-Rh), mouse ABHD6
Assay type: biochemical
Settings: mouse brain membrane proteome, competitive ABPP
Reported endpoint: IC50

INSERT INTO measurements (molecule_smiles, result) VALUES
  ('Cc1cc(Cl)ccc1C(c1ccc(Cl)cc1C)N1CCN(C(=O)OC(C(F)(F)F)C(F)(F)F)CC1', '> 1000 nM'),
  ('O=C(OC(C(F)(F)F)C(F)(F)F)N1CCC(C(c2ccc3c(c2)OCO3)c2ccc3c(c2)OCO3)CC1', '> 1000 nM'),
  ('Cc1nc(-c2cccc(CN(C)C(=O)OC(C(F)(F)F)C(F)(F)F)c2)no1', '100 to 1000 nM'),
  ('O=C(OC(C(F)(F)F)C(F)(F)F)N1CCC(=C(c2ccc3c(c2)OCO3)c2ccc3c(c2)OCO3)CC1', '100 to 1000 nM');

---

Molecular target: UniProt Q8R2Y0
Assay: In vitro competitive activity-based protein profiling (FP-Rh), mouse ABHD6
Format: biochemical
Details: mouse brain membrane proteome, competitive ABPP (Table 7)
Reported endpoint: IC50

INSERT INTO assay_data (compound, reported_endpoint, result) VALUES
  ('Cc1ccc(CN2CCN(C(=O)OC(C(F)(F)F)C(F)(F)F)CC2)cc1 [Example 9w]', 'IC50', '> 1000 nM'),
  ('CC(=O)N[C@@H]1CCN(c2cc(Cl)ccc2CN2CCN(C(=O)OC(C(F)(F)F)C(F)(F)F)CC2)C1 [Example 9ba]', 'IC50', '> 1000 nM'),
  ('O=C(OC(C(F)(F)F)C(F)(F)F)N1CCN(Cc2ccc(N3CCOCC3)cc2Cl)CC1 [Example 9e]', 'IC50', '100 to 1000 nM'),
  ('O=C(OC(C(F)(F)F)C(F)(F)F)N1CCN(Cc2ccc(Cl)cc2-n2cccn2)CC1 [Example 9ae]', 'IC50', '100 to 1000 nM'),
  ('O=C(OC(C(F)(F)F)C(F)(F)F)N1CCN(Cc2ccc(Cl)cc2N2CCC3(CCOCC3)C2)CC1 [Example 9av]', 'IC50', '> 1000 nM'),
  ('CC(=O)N[C@H]1CCN(c2cc(Cl)ccc2CN2CCN(C(=O)OC(C(F)(F)F)C(F)(F)F)CC2)C1 [Example 9bb]', 'IC50', '> 1000 nM'),
  ('O=C(OC(C(F)(F)F)C(F)(F)F)N1CCN(Cc2cccc(N3CCOCC3)c2)CC1 [Example 9ah]', 'IC50', '< 100 nM'),
  ('O=C(OC(C(F)(F)F)C(F)(F)F)N1CCN(Cc2cccc(Cl)c2N2CCCC2)CC1 [Example 9ar]', 'IC50', '> 1000 nM');
